Test system: Staphylococcus aureus bacteria (ATCC 9604 SV)
Assay: Minimal inhibitory concentration (MIC), broth microdilution
Format: cell-based
Conditions: ATCC9604, Staphylococcus aureus ATCC 9604 SV, 24 h at 37° C., read-out: MIC
Measured log10(MIC) accompanies every entry in the list below.
reported-property: log10(MIC) (log10 of the value in mg/L)

>>> observed("COc1ccc(C=C2C(=O)N(c3cc(Cl)cc(Cl)c3)N=C2c2ccccc2)cc1 [Compound 3]")
0.11
>>> observed("O=C(Nc1cc(C(F)(F)F)cc(C(F)(F)F)c1)Nc1cc(-c2cccnc2)nn1-c1ccc(Br)cc1 [Compound 117]")
0.53
>>> observed("O=C(NCc1cccc(Cl)c1)Nc1nc(-c2ccc(Br)cc2)cs1 [Compound 175]")
0.72
>>> observed("O=C(c1ccccn1)C1C(=O)N(c2cc(Cl)cc(Cl)c2)N=C1c1ccccc1 (stereo not shown) [Compound 50]")
1.01
>>> observed("O=C1C(=NO)C(c2ccccc2)=NN1c1cc(Cl)cc(Cl)c1 [Compound 23]")
0.92
>>> observed("O=C1CC(c2ccccc2)=NN1c1cc(Cl)cc(Cl)c1 [Compound 1]")
-0.91
>>> observed("CN1CCC(=C2C(=O)N(c3cc(Cl)cc(Cl)c3)N=C2c2ccccc2)CC1 [Compound 31]")
0.70
>>> observed("O=C(Nc1cc(C(F)(F)F)cc(C(F)(F)F)c1)Nc1cc(CO)nn1-c1ccc(Br)cc1 [Compound 99]")
0.82

----------
Tested on: Staphylococcus aureus bacteria (ATCC 9604 SV)
Assay: Minimal inhibitory concentration (MIC), broth microdilution
Type: cell-based
Settings: Staphylococcus aureus ATCC 9604 SV, 24 h at 37° C.
Measured MIC accompanies every entry in the list below.
reported-property: MIC

>>> observed("CN(C)Cc1cc(NC(=O)Nc2cc(C(F)(F)F)cc(C(F)(F)F)c2)n(-c2ccc(C(F)(F)F)cc2)n1")
"13.5 µg/mL"
>>> observed("C=CCCc1csc(NC(=O)Nc2cc(C(F)(F)F)cc(C(F)(F)F)c2)n1")
"10.2 µg/mL"
>>> observed("CCOC(=O)c1cc(NC(=O)Nc2cc(C(F)(F)F)cc(C(F)(F)F)c2)n(-c2ccc(Br)cc2)n1")
">14.1 µg/mL"
>>> observed("COC(=O)c1ccccc1C=C1C(=O)N(c2cc(Cl)cc(Cl)c2)N=C1c1ccccc1")
"12.5 µg/mL"
>>> observed("CC(C)(C)c1cc(NC(=O)Nc2cc(Cl)cc(Cl)c2)n(-c2ccc(Br)cc2)n1")
"<0.723 µg/mL"
>>> observed("CC1=NN(c2cc(Cl)cc(Cl)c2)C(=O)C1")
"6.08 µg/mL"
>>> observed("O=C(Nc1cc(Cl)cc(Cl)c1)Nc1cc(-c2ccco2)nn1-c1ccc(Br)cc1")
"6.15 µg/mL"
>>> observed("CC1=NN(c2cc(Cl)cc(Cl)c2)C(=O)C1C (centres unmarked)")
">6.43 µg/mL"
>>> observed("O=C1C(=Cc2nccs2)C(c2ccccc2)=NN1c1cc(Cl)cc(Cl)c1")
"12.5 µg/mL"
>>> observed("CCOC(=O)C1=NN(c2cc(Cl)cc(Cl)c2)C(=O)C1=CC(=O)O")
"6.25 µg/mL"
>>> observed("O=C(NCc1cccc(Cl)c1)Nc1nc(-c2ccc(Cl)cc2Cl)cs1")
"5.16 µg/mL"
>>> observed("O=C(Nc1cc(Cl)cc(Cl)c1)Nc1cc(-c2ccccc2)nn1-c1ccc(Br)cc1")
"6.28 µg/mL"
>>> observed("O=C1Nc2ccccc2C1=C1C(=O)N(c2cc(Cl)cc(Cl)c2)N=C1c1ccccc1")
"1.20 µg/mL"
>>> observed("Cc1cc(-c2csc(NC(=O)Nc3cc(C(F)(F)F)cc(C(F)(F)F)c3)n2)ccc1F")
"1.39 µg/mL"
>>> observed("O=C(O)Cc1csc(NC(=O)Nc2cc(C(F)(F)F)cc(C(F)(F)F)c2)n1")
">20.7 µg/mL"
>>> observed("O=C(Nc1cc(Cl)cc(Cl)c1)Nc1c2c(nn1-c1ccc(Br)cc1)CCCC2")
">24.0 µg/mL"
>>> observed("O=C1CC(c2ccccc2)=NN1c1ccc(Cl)c(Cl)c1")
"1.91 µg/mL"

----------
Measured MIC accompanies every entry in the list below.
Tested on: Staphylococcus aureus bacteria (ATCC 9604 SV)
Assay: Minimal inhibitory concentration (MIC), broth microdilution
Format: cell-based
Conditions: Staphylococcus aureus ATCC 9604 SV, 24 h at 37° C.
reported-property: MIC

>>> observed("Cn1cccc1C=C1C(=O)N(c2cc(Cl)cc(Cl)c2)N=C1c1ccccc1")
"0.320 µg/mL"
>>> observed("O=C(Nc1ccc(OC(F)F)cc1)Nc1nc(-c2ccc(F)c(F)c2)cs1")
"1.19 µg/mL"
>>> observed("O=C1C(CCc2ccccn2)C(c2ccccc2)=NN1c1cc(Cl)cc(Cl)c1 (centres unmarked)")
"5.13 µg/mL"
>>> observed("O=C1C(=Cc2cccnc2)C(c2ccccc2)=NN1c1cc(Cl)cc(Cl)c1")
"1.20 µg/mL"
>>> observed("CCC1=NN(c2cc(Cl)cc(Cl)c2)C(=O)C1=Cc1cccnc1")
"0.750 µg/mL"
>>> observed("CCC1=NN(c2cc(Cl)cc(Cl)c2)C(=O)C1")
"1.54 µg/mL"
>>> observed("O=C(Nc1cc(C(F)(F)F)cc(C(F)(F)F)c1)Nc1cc(-c2ccccc2)nn1CC(F)(F)F")
"<1.49 µg/mL"
>>> observed("CCCC1=NN(c2cc(Cl)cc(Cl)c2)C(=O)C1")
"0.813 µg/mL"
>>> observed("CC(C)=C1C(=O)N(c2cc(Cl)cc(Cl)c2)N=C1c1ccccc1")
"0.518 µg/mL"
>>> observed("CSc1ccc(C=C2C(=O)N(c3cc(Cl)cc(Cl)c3)N=C2c2ccccc2)cc1")
"6.25 µg/mL"
>>> observed("CCN(CC)c1ccc(C=C2C(=O)N(c3cc(Cl)cc(Cl)c3)N=C2c2ccccc2)cc1")
">12.5 µg/mL"
>>> observed("O=C(Nc1cc(C(F)(F)F)cc(C(F)(F)F)c1)Nc1cc(CN2CCOCC2)nn1-c1ccc(C(F)(F)F)cc1")
">29.1 µg/mL"
>>> observed("COCCN(CCOC)Cc1cc(NC(=O)Nc2cc(C(F)(F)F)cc(C(F)(F)F)c2)n(-c2ccc(Br)cc2)n1")
"16.0 µg/mL"
>>> observed("CCOC(=O)C1=NN(c2cc(Cl)cc(Cl)c2)C(=O)C1=Cc1ccc(C(=O)O)cc1")
"12.5 µg/mL"
>>> observed("CCC1=NN(c2cc(Cl)cc(Cl)c2)C(=O)C1=Cc1cccc(C(=O)O)c1")
"6.25 µg/mL"
>>> observed("O=C(NCc1cccc(Cl)c1)Nc1nc(C2CCCC2)cs1")
"8.40 µg/mL"
>>> observed("O=C(Nc1ccc(F)c(C(F)(F)F)c1)Nc1nc(-c2cccc(F)c2)cs1")
"2.40 µg/mL"

----------
Tested on: Staphylococcus aureus bacteria (ATCC 9604 SV)
Experiment: Minimal inhibitory concentration (MIC), broth microdilution
Format: cell-based
Conditions: Staphylococcus aureus ATCC 9604 SV, 24 h at 37° C.
reported-property: MIC (µg/mL)

>>> observed("CC1=NN(c2cc(Cl)cc(Cl)c2)C(=O)C1Cc1ccccc1 (stereo not drawn) [Compound 21]")
8.33
>>> observed("CC(C)(C)c1csc(NC(=O)NCc2cccc(Cl)c2)n1 [Compound 172]")
8.10
>>> observed("O=C(O)c1ccc(C=C2C(=O)N(c3cc(Cl)cc(Cl)c3)N=C2c2ccccc2)cc1 [Compound 52]")
0.656

----------
System: Staphylococcus aureus bacteria (ATCC 9604 SV)
Test: Minimal inhibitory concentration (MIC), broth microdilution
Format: cell-based
Settings: Staphylococcus aureus ATCC 9604 SV, 24 h at 37° C.
reported-property: MIC (µg/mL)

>>> observed("O=C(Nc1cc(C(F)(F)F)cc(C(F)(F)F)c1)Nc1cc(-c2ccncc2)nn1-c1ccc(Br)cc1")
0.855
>>> observed("CCC1=NN(c2cc(Cl)cc(Cl)c2)C(=O)C1=Cc1cccc(C(=O)N2CCOCC2)c1")
11.5
>>> observed("CCC1=NN(c2cc(Cl)cc(Cl)c2)C(=O)C1=NO")
7.15
>>> observed("O=C(NCc1cccc(Cl)c1)Nc1nc(-c2ccc(C(F)(F)F)cc2)cs1")
5.15
>>> observed("Cc1nc(NC(=O)Nc2cc(C(F)(F)F)cc(C(F)(F)F)c2)sc1C")
1.15
>>> observed("O=C(Nc1cc(Cl)cc(Cl)c1)Nc1cc(-c2ccsc2)nn1-c1ccc(Br)cc1")
25.4
>>> observed("O=C1CC(c2ccc(F)cc2)=NN1c1cc(Cl)cc(Cl)c1")
0.485
>>> observed("CCC1=NN(c2cc(Cl)cc(Cl)c2)C(=O)C1=Cc1ccco1")
1.50
>>> observed("O=C1C(=Cc2ccncc2)C(c2ccccc2)=NN1c1cc(Cl)cc(Cl)c1")
1.15
>>> observed("O=C(Nc1cc(C(F)(F)F)cc(C(F)(F)F)c1)Nc1cc(-c2ccncc2)nn1-c1ccc(C(F)(F)F)cc1")
1.68
>>> observed("CCOC(=O)C1=NN(c2cc(Cl)cc(Cl)c2)C(=O)C1=CC1C(=O)Nc2ccccc21 (stereo not shown)")
12.5
>>> observed("O=C1CC(Cc2ccccc2)=NN1c1cc(Cl)cc(Cl)c1")
0.958
>>> observed("Cc1cc(-c2csc(NC(=O)NCc3cccc(Cl)c3)n2)ccc1F")
9.40
>>> observed("CC(C)(C)c1cc(NC(=O)Nc2cc(C(F)(F)F)cc(C(F)(F)F)c2)n(-c2ccc(C(F)(F)F)cc2)n1")
0.808
>>> observed("O=C1CC(C(F)(F)F)=NN1c1cc(Cl)cc(Cl)c1")
3.56
>>> observed("O=C(Nc1cc(C(F)(F)F)cc(C(F)(F)F)c1)Nc1nc(-c2cccc(F)c2)cs1")
1.35
>>> observed("O=C(O)c1cccc(C=C2C(=O)N(c3cc(Cl)cc(Cl)c3)N=C2c2ccccc2)c1")
1.31
>>> observed("O=C(O)c1ccccc1C=C1C(=O)N(c2cc(Cl)cc(Cl)c2)N=C1c1ccccc1")
1.35
>>> observed("O=C(NCc1cccc(Cl)c1)Nc1nc(-c2cccc(F)c2)cs1")
9.05
>>> observed("O=C(Nc1cc(C(F)(F)F)cc(C(F)(F)F)c1)Nc1cc(CN(CCO)CCO)nn1-c1ccc(Br)cc1")
15.3
